# Target: CAv1.2 (Homo sapiens, UniProt Q13936)
# Experiment Description: L-type (CAv1.2) channel blocking, FLIPR data (Table 6)
# Type: cell-based
# Condition Details: inactivated state, read-out: CAv1.2 IC50 Inact.
Each record here notes measured IC50.
Write down the numeric answer in µM and omit the unit.

Below: 3 compounds and their reported IC50.
[
  {
    "Compound": "CC(C)([C@H]1C[C@H](C(=O)Nc2ccc(Cl)cn2)C1)S(=O)(=O)c1cccc(C(F)(F)F)c1 [Compound 761]",
    "Target": "CAv1.2 (Homo sapiens, UniProt Q13936)",
    "IC50 / µM": 4.61
  },
  {
    "Compound": "CC(C)([C@H]1C[C@H](C(=O)Nc2ccc(C(F)(F)F)nc2)C1)S(=O)(=O)c1cccc(C(F)(F)F)c1 [Compound 760]",
    "Target": "CAv1.2 (Homo sapiens, UniProt Q13936)",
    "IC50 / µM": 3.55
  },
  {
    "Compound": "CC(C)([C@H]1C[C@H](C(=O)Nc2ccc(C(F)(F)F)cc2)C1)S(=O)(=O)c1cccc(C(F)(F)F)c1 [Compound 765]",
    "Target": "CAv1.2 (Homo sapiens, UniProt Q13936)",
    "IC50 / µM": 2.25
  }
]

Shift focus to the following entry.
Prompt line: What IC50 value was documented for this compound, Cn1nc(C(F)(F)F)cc1NC(=O)[C@H]1C[C@H](C(C)(C)S(=O)(=O)c2cccc(C(F)(F)F)c2)C1 [Compound 769] ?
Response line: 1.47

###

Below, each entry is listed with its recorded log10 of IC50.
# Target: human α1G T-type channels (Homo sapiens, UniProt O43497)
# Sequence (O43497 whole entry): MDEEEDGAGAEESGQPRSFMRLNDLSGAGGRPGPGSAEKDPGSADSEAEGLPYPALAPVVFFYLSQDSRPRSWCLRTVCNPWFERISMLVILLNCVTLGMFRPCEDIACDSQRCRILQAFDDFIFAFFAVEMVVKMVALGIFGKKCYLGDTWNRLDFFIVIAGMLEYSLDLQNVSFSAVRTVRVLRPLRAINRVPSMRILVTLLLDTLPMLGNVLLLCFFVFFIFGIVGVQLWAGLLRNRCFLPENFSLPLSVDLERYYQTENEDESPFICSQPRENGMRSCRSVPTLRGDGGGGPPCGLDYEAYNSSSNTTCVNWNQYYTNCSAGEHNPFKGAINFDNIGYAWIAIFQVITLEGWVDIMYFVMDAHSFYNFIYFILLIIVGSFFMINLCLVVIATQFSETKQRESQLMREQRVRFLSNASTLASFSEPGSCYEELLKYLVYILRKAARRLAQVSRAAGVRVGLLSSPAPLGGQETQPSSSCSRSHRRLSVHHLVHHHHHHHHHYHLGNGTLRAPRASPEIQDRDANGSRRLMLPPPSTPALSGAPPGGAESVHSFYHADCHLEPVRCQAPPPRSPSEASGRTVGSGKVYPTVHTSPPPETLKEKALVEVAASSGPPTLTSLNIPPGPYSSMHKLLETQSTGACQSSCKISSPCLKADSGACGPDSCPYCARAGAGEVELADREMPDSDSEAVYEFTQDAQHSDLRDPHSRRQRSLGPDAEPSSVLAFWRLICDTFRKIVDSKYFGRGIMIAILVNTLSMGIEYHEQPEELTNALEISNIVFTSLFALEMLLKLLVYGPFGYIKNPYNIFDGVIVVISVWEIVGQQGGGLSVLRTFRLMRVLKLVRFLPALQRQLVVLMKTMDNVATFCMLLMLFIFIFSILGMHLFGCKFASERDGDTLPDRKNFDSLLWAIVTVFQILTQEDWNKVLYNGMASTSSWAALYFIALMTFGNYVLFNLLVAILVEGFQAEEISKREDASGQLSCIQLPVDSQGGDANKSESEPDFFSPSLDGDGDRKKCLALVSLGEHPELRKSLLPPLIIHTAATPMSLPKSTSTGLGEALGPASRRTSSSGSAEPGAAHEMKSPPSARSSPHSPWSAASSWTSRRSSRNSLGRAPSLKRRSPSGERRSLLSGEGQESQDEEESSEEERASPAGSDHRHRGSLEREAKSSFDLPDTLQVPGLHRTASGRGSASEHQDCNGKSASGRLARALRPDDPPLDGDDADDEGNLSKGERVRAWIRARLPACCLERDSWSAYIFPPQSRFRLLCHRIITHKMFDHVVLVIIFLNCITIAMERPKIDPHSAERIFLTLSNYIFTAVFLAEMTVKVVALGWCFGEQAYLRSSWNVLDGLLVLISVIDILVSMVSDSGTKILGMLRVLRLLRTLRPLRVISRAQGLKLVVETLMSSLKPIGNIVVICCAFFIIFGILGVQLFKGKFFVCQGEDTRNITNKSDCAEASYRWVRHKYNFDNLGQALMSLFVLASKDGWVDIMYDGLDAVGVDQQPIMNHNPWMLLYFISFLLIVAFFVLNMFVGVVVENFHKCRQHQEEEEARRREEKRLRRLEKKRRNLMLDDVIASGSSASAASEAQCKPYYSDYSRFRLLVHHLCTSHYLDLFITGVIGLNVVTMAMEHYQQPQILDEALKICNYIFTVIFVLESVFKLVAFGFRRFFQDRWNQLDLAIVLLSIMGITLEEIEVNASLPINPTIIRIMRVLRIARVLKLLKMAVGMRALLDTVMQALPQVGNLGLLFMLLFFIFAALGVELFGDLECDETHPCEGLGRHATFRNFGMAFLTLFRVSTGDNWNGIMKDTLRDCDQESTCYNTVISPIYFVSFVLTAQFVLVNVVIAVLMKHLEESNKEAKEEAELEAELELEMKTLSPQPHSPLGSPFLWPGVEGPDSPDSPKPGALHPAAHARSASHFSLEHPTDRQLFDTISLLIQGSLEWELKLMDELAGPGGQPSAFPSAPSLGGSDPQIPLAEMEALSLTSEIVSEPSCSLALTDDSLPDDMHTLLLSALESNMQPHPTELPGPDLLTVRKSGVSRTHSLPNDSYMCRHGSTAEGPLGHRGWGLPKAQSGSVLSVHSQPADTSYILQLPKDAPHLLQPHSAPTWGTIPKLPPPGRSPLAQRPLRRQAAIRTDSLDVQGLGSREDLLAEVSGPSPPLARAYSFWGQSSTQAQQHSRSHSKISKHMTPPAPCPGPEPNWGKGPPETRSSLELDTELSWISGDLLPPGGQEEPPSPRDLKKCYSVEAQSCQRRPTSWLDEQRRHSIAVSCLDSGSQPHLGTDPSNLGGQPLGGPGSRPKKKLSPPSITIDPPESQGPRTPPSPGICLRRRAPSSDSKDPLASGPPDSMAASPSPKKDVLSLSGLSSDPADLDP
# Experiment Description: T-type calcium channel block, whole cell patch clamp, α1G
# Condition Details: HEK cells stably expressing human α1G; mainly non-inactivated protocol; values above 10,000 nM represented as 10000
Kindly note that the scale is log10 and the underlying IC50 is in µM.

[
  {
    "Compound": "O=C(N[C@H]1CC[C@](F)(S(=O)(=O)c2cccc(C(F)(F)F)c2)CC1)c1cc(F)cc(Cl)c1",
    "Target": "human α1G T-type channels (Homo sapiens, UniProt O43497)",
    "Readout Number": -0.42
  }
]

Prompt line: Please report the recorded log10 of IC50 for CC(C)(CCS(=O)(=O)c1cccc(OC(F)(F)F)c1)S(=O)(=O)c1cccc(C(F)(F)F)c1 .
Response line: -0.46

Prompt line: For the compound CN(C(=O)CN[C@H]1CC[C@@H](CS(=O)(=O)c2cccc(C(F)(F)F)c2)CC1)C(C)(C)C , what log10 of IC50 is on record?
Response line: 0.77

Prompt line: I would be grateful if you could share the reported log10 of IC50 for CC1(S(=O)(=O)c2cccc(C(F)(F)F)c2)CCC(NC(=O)c2cnc(C(F)(F)F)nc2)CC1 (stereo not drawn) .
Response line: 0.14

###

# Target: human α1G T-type channels (Homo sapiens, UniProt O43497)
# Experiment Description: T-type calcium channel block, whole cell patch clamp, α1G
# Condition Details: HEK cells stably expressing human α1G; mainly non-inactivated protocol; values above 10,000 nM represented as 10000
The following molecules are listed with their measured IC50 values.
Give the quantity in nM, number only.

[
  {
    "Molecule": "O=C(N[C@H]1CC[C@H](S(=O)(=O)c2cccc(C(F)(F)F)c2)CC1)c1cncc(C(F)(F)F)c1 [Compound 190]",
    "Readout Units": "nM",
    "IC50": 5560
  }
]

Prompt line: Need IC50 of CN(CCC(C)(C)S(=O)(=O)c1cccc(C(F)(F)F)c1)C(=O)c1cc(C(F)(F)F)n[nH]1 [Compound 513] , thanks.
Response line: 490

Prompt line: Looking for the measured IC50 of COc1cc(F)cc(C(=O)N[C@H]2CC[C@@H](CS(=O)(=O)c3cccc(C(F)(F)F)c3)CC2)c1 [Compound 136] , can you help?
Response line: 540

Prompt line: Query: IC50; subject: CC(C)(C)Oc1ccc(CNC(=O)C(C)(C)S(=O)(=O)c2cccc(C(F)(F)F)c2)cc1 [Compound 502]
Response line: 360

Prompt line: What does the data say about its IC50? Entry: O=C(N[C@H]1CC[C@@](F)(S(=O)(=O)c2cccc(C(F)(F)F)c2)CC1)[C@@H]1C[C@@H](Cc2ccc(F)cc2)CN1 [Compound 287]
Response line: 6500

Prompt line: For the molecule Cn1nc(C(F)(F)F)cc1C(=O)NC[C@H]1C[C@H](S(=O)(=O)c2cccc(C(F)(F)F)c2)C1 [Compound 355] , what IC50 is on record?
Response line: 1430

###

The reader will find reported IC50 values listed item by item below.
# Target: CAv1.2 (Homo sapiens)
# Experiment Description: L-type (CAv1.2) channel blocking, FLIPR data (Table 6)
# Format: cell-based
# Condition Details: inactivated state, read-out: CAv1.2 IC50 Inact.
Please respond with the number in nM and leave the unit unwritten.

[
  {
    "Smiles Notation": "CC(C)([C@H]1C[C@@H](CNc2cc(C(F)(F)F)n[nH]2)C1)S(=O)(=O)c1cccc(C(F)(F)F)c1",
    "IC50 / nM": 3880
  },
  {
    "Smiles Notation": "CC(C)([C@H]1C[C@@H](C(=O)Nc2cc(C(F)(F)F)n[nH]2)C1)S(=O)(=O)c1cccc(C(F)(F)F)c1",
    "IC50 / nM": 5390
  },
  {
    "Smiles Notation": "CC(C)([C@H]1C[C@@H](CNc2ccc(F)c(Cl)c2)C1)S(=O)(=O)c1cccc(C(F)(F)F)c1",
    "IC50 / nM": 1510
  },
  {
    "Smiles Notation": "CC(C)([C@H]1C[C@@H](C(=O)Nc2ccc(C(F)(F)F)cn2)C1)S(=O)(=O)c1cccc(C(F)(F)F)c1",
    "IC50 / nM": 1880
  }
]

Query compound follows.
Prompt line: So what's the measured IC50 for this one? CC(C)([C@H]1C[C@@H](C(=O)Nc2ccc(C(F)(F)F)cc2)C1)S(=O)(=O)c1cccc(C(F)(F)F)c1
Response line: 1370

###

# Target: human α1H T-type channels (Homo sapiens)
# Sequence (O95180 whole entry): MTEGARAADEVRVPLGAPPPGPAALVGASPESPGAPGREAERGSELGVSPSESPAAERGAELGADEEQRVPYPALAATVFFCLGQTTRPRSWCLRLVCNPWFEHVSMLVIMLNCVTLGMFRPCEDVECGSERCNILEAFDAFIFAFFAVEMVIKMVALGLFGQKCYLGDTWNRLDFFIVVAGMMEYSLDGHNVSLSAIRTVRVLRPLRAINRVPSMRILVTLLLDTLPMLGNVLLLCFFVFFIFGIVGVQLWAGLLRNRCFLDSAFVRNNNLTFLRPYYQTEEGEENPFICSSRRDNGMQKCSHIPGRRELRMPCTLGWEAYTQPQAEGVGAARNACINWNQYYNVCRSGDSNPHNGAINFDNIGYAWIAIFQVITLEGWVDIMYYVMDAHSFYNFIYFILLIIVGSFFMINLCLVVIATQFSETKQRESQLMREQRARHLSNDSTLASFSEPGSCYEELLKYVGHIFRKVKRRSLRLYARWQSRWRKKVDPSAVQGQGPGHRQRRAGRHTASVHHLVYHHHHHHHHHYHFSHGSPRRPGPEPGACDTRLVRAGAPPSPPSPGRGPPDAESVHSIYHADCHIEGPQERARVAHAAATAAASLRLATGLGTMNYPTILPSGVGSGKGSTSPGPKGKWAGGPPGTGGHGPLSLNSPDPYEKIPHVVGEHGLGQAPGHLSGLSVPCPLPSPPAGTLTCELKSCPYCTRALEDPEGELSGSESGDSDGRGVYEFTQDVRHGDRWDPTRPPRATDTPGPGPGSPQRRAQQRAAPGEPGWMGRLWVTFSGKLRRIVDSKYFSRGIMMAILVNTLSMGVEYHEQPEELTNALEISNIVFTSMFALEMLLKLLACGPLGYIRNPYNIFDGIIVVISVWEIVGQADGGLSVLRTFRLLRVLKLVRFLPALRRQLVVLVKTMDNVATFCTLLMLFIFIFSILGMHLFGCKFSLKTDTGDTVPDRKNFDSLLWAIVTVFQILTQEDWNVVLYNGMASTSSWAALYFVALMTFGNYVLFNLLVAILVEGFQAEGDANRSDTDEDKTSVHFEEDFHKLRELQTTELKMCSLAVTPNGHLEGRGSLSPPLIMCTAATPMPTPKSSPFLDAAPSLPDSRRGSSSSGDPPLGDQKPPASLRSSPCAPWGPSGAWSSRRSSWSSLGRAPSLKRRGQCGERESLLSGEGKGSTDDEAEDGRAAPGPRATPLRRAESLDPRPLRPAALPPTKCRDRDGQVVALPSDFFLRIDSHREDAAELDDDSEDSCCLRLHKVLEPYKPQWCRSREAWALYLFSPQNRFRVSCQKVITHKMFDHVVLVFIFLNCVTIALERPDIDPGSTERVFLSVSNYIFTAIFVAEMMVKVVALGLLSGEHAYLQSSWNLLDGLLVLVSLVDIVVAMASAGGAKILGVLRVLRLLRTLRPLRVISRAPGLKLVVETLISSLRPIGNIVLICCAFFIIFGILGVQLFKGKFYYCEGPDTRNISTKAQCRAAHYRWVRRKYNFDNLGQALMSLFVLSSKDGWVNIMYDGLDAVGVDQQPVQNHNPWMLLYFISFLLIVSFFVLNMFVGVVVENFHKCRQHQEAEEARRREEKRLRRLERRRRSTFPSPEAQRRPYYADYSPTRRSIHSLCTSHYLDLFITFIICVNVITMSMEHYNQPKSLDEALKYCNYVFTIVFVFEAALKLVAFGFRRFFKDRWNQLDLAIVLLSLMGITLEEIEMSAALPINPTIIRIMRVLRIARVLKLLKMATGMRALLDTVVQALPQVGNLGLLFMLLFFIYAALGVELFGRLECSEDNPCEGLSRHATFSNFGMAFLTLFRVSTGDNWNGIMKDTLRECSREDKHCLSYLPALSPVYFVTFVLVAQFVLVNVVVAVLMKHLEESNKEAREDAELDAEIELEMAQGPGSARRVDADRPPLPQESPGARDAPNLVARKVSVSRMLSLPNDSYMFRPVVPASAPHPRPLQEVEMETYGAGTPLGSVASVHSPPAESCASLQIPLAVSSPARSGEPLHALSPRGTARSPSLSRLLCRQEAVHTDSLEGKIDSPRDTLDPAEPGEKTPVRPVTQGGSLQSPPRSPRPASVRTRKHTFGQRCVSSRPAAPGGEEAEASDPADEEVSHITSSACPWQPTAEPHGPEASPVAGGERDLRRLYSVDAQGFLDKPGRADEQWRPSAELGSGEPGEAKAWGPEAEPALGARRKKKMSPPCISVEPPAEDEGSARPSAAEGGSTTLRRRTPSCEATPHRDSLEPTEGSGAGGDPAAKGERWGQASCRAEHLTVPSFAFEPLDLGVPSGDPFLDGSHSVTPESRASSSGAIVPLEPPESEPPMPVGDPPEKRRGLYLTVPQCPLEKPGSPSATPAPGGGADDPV
# Experiment Description: T-type calcium channel block, whole cell patch clamp, α1H
# Condition Details: HEK cells stably expressing human α1H; mainly non-inactivated protocol; values above 10,000 nM represented as 10000
# note: exactly 4000 nM is not below, so it is NO; use YES for IC50 strictly under it

These recorded examples may help you get a feel for the data.
[
  {
    "Molecule": "CC(C)(CCNC(=O)c1cc(C(F)(F)F)nc(S(C)(=O)=O)c1)S(=O)(=O)c1cc(F)cc(C(F)(F)F)c1",
    "Assigned Label": "NO"
  },
  {
    "Molecule": "CC1(S(=O)(=O)c2cccc(C(F)(F)F)c2)CCN(C(=O)CNC2CCCCC2)CC1",
    "Assigned Label": "YES"
  },
  {
    "Molecule": "COc1cc(F)cc(C(=O)N[C@H]2C[C@H](CS(=O)(=O)c3cccc(C(F)(F)F)c3)C2)c1",
    "Assigned Label": "NO"
  },
  {
    "Molecule": "CC(C)(CNS(=O)(=O)c1ccc2c(c1)NC(=O)CO2)S(=O)(=O)c1cccc(C(F)(F)F)c1",
    "Assigned Label": "NO"
  },
  {
    "Molecule": "CC(C)(C(=O)Nc1ccc(Oc2ccc(C(F)(F)F)nc2)nc1)S(=O)(=O)c1cccc(C(F)(F)F)c1",
    "Assigned Label": "YES"
  },
  {
    "Molecule": "O=C(N[C@H]1CC[C@@H](CS(=O)(=O)c2cccc(C(F)(F)F)c2)CC1)c1ccc(F)c(Cl)c1",
    "Assigned Label": "NO"
  },
  {
    "Molecule": "O=S(=O)(N[C@H]1CC[C@@](F)(S(=O)(=O)c2cccc(C(F)(F)F)c2)CC1)c1ccccc1C(F)(F)F",
    "Assigned Label": "YES"
  },
  {
    "Molecule": "CC(C)(C)NC(=O)CN[C@H]1CC[C@@](F)(S(=O)(=O)c2cccc(C(F)(F)F)c2)CC1",
    "Assigned Label": "YES"
  }
]

Prompt line: Say whether its IC50 is strictly beneath 4000 nM. Entry: CC(C)(C)NC(=O)CN[C@H]1CC[C@](F)(S(=O)(=O)c2cccc(C(F)(F)F)c2)CC1
Response line: YES

Prompt line: For this molecule, is IC50 lower than 4000 nM? O=C(N[C@H]1CC[C@@](F)(S(=O)(=O)c2cccc(C(F)(F)F)c2)CC1)c1ccc(Cl)cc1Cl
Response line: YES

Prompt line: Just wondering, is IC50 of O=C(NC[C@H]1C[C@H](S(=O)(=O)c2cc(F)cc(C(F)(F)F)c2)C1)c1ccc(F)c(C(F)(F)F)c1 below 4000 nM?
Response line: NO

Prompt line: Consider the molecule CC(C)(CCNC(=O)c1cn2ccc(C(F)(F)F)cc2n1)S(=O)(=O)c1cccc(C(F)(F)F)c1 . Is its IC50 strictly less than 4000 nM?
Response line: NO

Prompt line: Could you please tell me whether IC50 recorded for CS(=O)(=O)c1nc(C(F)(F)F)ccc1C(=O)NCC1CC(S(=O)(=O)c2cccc(C(F)(F)F)c2)C1 (stereo not drawn) is less than 4000 nM?
Response line: YES

Prompt line: In plain terms, does O=C(CCC(F)(F)F)N[C@H]1CC[C@@](F)(S(=O)(=O)c2cccc(C(F)(F)F)c2)CC1 come in under 4000 nM for IC50?
Response line: YES

Prompt line: Is it true that IC50 reported for COc1cc(C(=O)NC[C@H]2C[C@H](S(=O)(=O)c3cccc(C(F)(F)F)c3)C2)cc(Cl)n1 is less than 4000 nM?
Response line: NO
